biological target: Telomerase reverse transcriptase (Homo sapiens); assay: Inhibition of telomerase in human A549 cells at 25 uM after 24 hrs by TRAP assay; assay type: cell-based
Activity calls are given as the source filed them. The rule behind the calls is not given here.
Outcomes you can answer with include only these: true for active, false for inactive

COc1cc(/C=C/C(=O)c2cc(OC)c(OC)c(OC)c2)cc(OC)c1OC	true
COc1cccc(/C=C/C(=O)c2cc(OC)c(OC)c(OC)c2)c1OC	true
COc1ccc(/C=C/C(=O)c2cc(OC)c(OC)c(OC)c2)cc1OC	true
COc1cc(O)c2c(c1OC)O[C@H](c1ccccc1)CC2=O	false
COc1cc(OC)c2c(c1)O[C@H](c1ccccc1)CC2=O	false

Exercise: # outcome recorded in this test, key = COc1ccc(/C=C2/COc3cc(O)ccc3C2=O)cc1
Solution: true

Exercise: # outcome recorded in this test, key = COc1cc(C(=O)/C=C/c2ccc(N(C)C)cc2)cc(OC)c1OC
Solution: false

Exercise: # outcome recorded in this test, key = COC[C@H](Cc1ccc(OC)c(OC)c1)[C@H](COC)Cc1ccc(OC)c(OC)c1
Solution: false

Exercise: # outcome recorded in this test, key = COc1cc(O)c(C(=O)/C=C/c2cccc(OC)c2OC)c(OC)c1
Solution: true

Exercise: # outcome recorded in this test, key = COc1c(O)cc(C(=O)O)cc1O
Solution: false

Exercise: # outcome recorded in this test, key = C[C@H]1O[C@H](Oc2cc(O)c3c(=O)c(O[C@H]4O[C@H](C)[C@@H](O[C@H]5O[C@H](CO)[C@@H](O)[C@H](O)[C@H]5O)[C@H](O)[C@@H]4O)c(-c4ccc(O)cc4)oc3c2)[C@@H](O)[C@@H](O)[C@@H]1O
Solution: false
